src = ChEMBL document CHEMBL4689842

- Test system: Fibroblast
- assay info: Multiplex assay against human fibroblast
- Assay type: toxicity, cell-based
- conditions used: 24 h, 10 µM, compound concentration 10 uM, replicate 2
Provide the reported Population Mitochondria Different-Phenotype (%) of each item.
Value expressed in %; do not type the unit.

[in] Could you tell me which Population Mitochondria Different-Phenotype (%) is on file for CNC(=O)Nc1ccc(-c2nc(N3CC4CCC(C3)O4)c3cnn(C4CCC5(CC4)OCCO5)c3n2)cc1 ?
[out] 84

[in] Could you tell me which Population Mitochondria Different-Phenotype (%) is on file for C[C@]12CC[C@@H]3c4ccc(O)cc4CC[C@H]3[C@@H]1CC[C@@H]2O ?
[out] 11

[in] Could you tell me which Population Mitochondria Different-Phenotype (%) is on file for O=c1[nH]c2ccccc2n1C1CCN(Cc2ccc(-c3[nH]c4cc5ncnc5cc4nc3-c3ccccc3)cc2)CC1 ?
[out] 28

[in] Could you tell me which Population Mitochondria Different-Phenotype (%) is on file for Cc1ccc2c(c1)c1c(n2CCc2ccc(C)nc2)CCN(C)C1 [LATREPIRDINE] ?
[out] 100

[in] Could you tell me which Population Mitochondria Different-Phenotype (%) is on file for CC(C)(C)NC[C@H](O)COc1nsnc1N1CCOCC1 ?
[out] 5

[in] Could you tell me which Population Mitochondria Different-Phenotype (%) is on file for CC1=C(C(=O)Nc2cc3cn[nH]c3cc2F)C(c2ccc(C(F)(F)F)cc2)CC(=O)N1 (centres undefined) ?
[out] 14

[in] Could you tell me which Population Mitochondria Different-Phenotype (%) is on file for CN1CCN(Cc2ccc(Nc3ncc(Cl)c(Nc4ccccc4S(=O)(=O)N(C)C)n3)cc2)CC1 ?
[out] 55

[in] Could you tell me which Population Mitochondria Different-Phenotype (%) is on file for Cc1nc(N2CC[C@H](O)C2)ncc1-c1cc(C(F)(F)F)cc2[nH]ncc12 ?
[out] 30

[in] Could you tell me which Population Mitochondria Different-Phenotype (%) is on file for O=C(c1cc2c(cc1F)OC(c1ccc(F)cc1)(c1ccc(Cl)cc1Cl)O2)N1CCOCC1 (centres undefined) ?
[out] 100

[in] Could you tell me which Population Mitochondria Different-Phenotype (%) is on file for CC(C)OC(=O)N1CCC(Oc2ncnc3c2cnn3-c2ccc(S(C)(=O)=O)cc2F)CC1 ?
[out] 2

[in] Could you tell me which Population Mitochondria Different-Phenotype (%) is on file for Cc1c[nH]c2nccc(Oc3c(F)cc(Nc4cc(Cl)nc(N)n4)cc3F)c12 ?
[out] 20

[in] Could you tell me which Population Mitochondria Different-Phenotype (%) is on file for C=CC(=O)Nc1cccc(Oc2nc(Nc3ccc(N4CCN(C)CC4)cc3OC)ncc2Cl)c1 ?
[out] 9

[in] Could you tell me which Population Mitochondria Different-Phenotype (%) is on file for CCc1ccc(OCc2ccccc2C(=O)Nc2ccc3nc(C)cc(N)c3c2)cc1.Cl ?
[out] 94

[in] Could you tell me which Population Mitochondria Different-Phenotype (%) is on file for Cl.O=C(O)c1cc(-c2ccc(C3CCNCC3)cc2)c2ccc(-c3ccc(C(F)(F)F)cc3)cc2c1 ?
[out] 5
